Recorded values, source the supplement of paper PMC9170038.

apparent KD of MS2 coat protein values, listed per item
System: MS2 coat protein
Experiment: apparent KD of MS2 coat protein; designed switch direction (-1 OFF switch, 1 ON switch): 1; higher = weaker reporter binding
Conditions: Eterna round: R95; input ligand: none
Unit nM implied. Number only.

Please review the entries below; each comes with its answer.
ENTRY SEQUENCE	TARGET OF ASSAY	SCALE UNIT	apparent KD of MS2 coat protein
GACUAUCUAUCUCAGGAUAUCAUGUCAAAGACAUGAGGAUCACCCAUGUACCAGGAAACUGGUUAUGAGAAGGGAGAUAGAUAGG [Mat - Same State 2 - Mod - D43] (puzzle: Same State 2)	MS2 coat protein	nM	38.8
AUAAGUUCGAUGCUCGUCUCUCCGUACAAACAUGAGGAUCACCCAUGUGGUCGGGAAGUAGCCCGGCCAGUAUGACC [Arbesoce] (puzzle: Sensor for hsa-mir-208a)	MS2 coat protein	nM	29
AGUCCAGCGAAAGCUGGACAAAAGCAUGUACAUGAGGAUCACCCAUGUUCAUGUACAAGCUUUUUGUUCGUCUUAAA [JL mod - D95 - 14] (puzzle: Sensor for hsa-mir-208a)	MS2 coat protein	nM	601
UAGAACAAGCUUUUUGCCCGUCUUAUAUAACAUGAGGAUCACCCAUGUAAGGUGAAAGUUAGAGAGUGGAGGUUGAA [JR_SHM208A_Sub048] (puzzle: Sensor for hsa-mir-208a)	MS2 coat protein	nM	156
UGGAUCUAGGCUUGCCUGGGUCCAUGUUGACAUGAGGAUCACCCAUGUGUUUUUUUUUUGCUUUUUGUUUGUCAACA [JL A Humble Attempt mod 3] (puzzle: Sensor for hsa-mir-208a)	MS2 coat protein	nM	21.7
CCUUAACAUGAGGAUCACCCAUGUAACAAGGAGUAAGGAUAUACAUGGGAAAACAGUCAUGUAGAAGGUACAAAAG [Rexereon] (puzzle: Same State 1)	MS2 coat protein	nM	18
GUUAAACAUGAGGAUCACCCAUGUCAAUGUAGUCGAGGAUAUGGGUAGCCAUGAGGCGUACUAGAAGGCGAGGAGU [Mat - Same State 1 - Mod of JL - D19] (puzzle: Same State 1)	MS2 coat protein	nM	80.5
UACAAUCUAUCUGAGGAUAUCAUGAAUAAAACAUGAGGAUCACCCAUGUGCAGGAUAACUGCAAAUGAGAAGGCAGAUAGAUUGU [Mat - Same State 2 - Mod - D8] (puzzle: Same State 2)	MS2 coat protein	nM	24.1

Query :: What is its apparent KD of MS2 coat protein for MS2 coat protein? Entry: AUAAGGCAAGCUUUUUUCUCGUAGUGUAAACAUGAGGAUCACCCAUGUGCCCACCCUGGAUCUUUGGAUCGCAGAAC [Sobiisarre] (puzzle: Sensor for hsa-mir-208a)
Result :: 22.7

Query :: What is its apparent KD of MS2 coat protein for MS2 coat protein? Entry: GGUCCAGCCUGAGCUGGACAGAAGCAUGUACAUGAGGAUCACCCAUGUCAUGUACAAGCUUUUUGCUCGUCUUAAAA [JL mod - D87 - 1] (puzzle: Sensor for hsa-mir-208a)
Result :: 498

Query :: What is its apparent KD of MS2 coat protein for MS2 coat protein? Entry: AGUCCAGCGAAAGCUGGACAAAAGCAUGUACAUGAGGAUCACCCAUGUUUAUGUACAAGCUUUUUGCUCGUCUUAAA [JL mod - D95 - 11] (puzzle: Sensor for hsa-mir-208a)
Result :: 300

Query :: What is its apparent KD of MS2 coat protein for MS2 coat protein? Entry: AUAAAACAUGAGGAUCACCCAUGUCAACAAAGUCGAGGAUAUGGGCAAAUAAAUUAAGAACCAGAAGGCGAAUAAU [salish99_ss1_r3_021] (puzzle: Same State 1)
Result :: 313

Query :: What is its apparent KD of MS2 coat protein for MS2 coat protein? Entry: CUCAAACAUGAGGAUCACCCAUGUUUUUUCAUGGGAGGAUAUCUAAGUUCAUUAUAUUCAGGAGAAGGCCUAUGUC [× ×•×ª×• ×ž×“×™× ×” × ×—×ª-07] (puzzle: Same State 1)
Result :: 261

Query :: What is its apparent KD of MS2 coat protein for MS2 coat protein? Entry: GGUCCGGCCUGAGCUGGACCGAAGCAUGUACAUGAGGAUCACCCAUGUCAUGUACAGGCUUUUUGCUCGUCUUAUUG [JL-shm-2.13 JL Mod] (puzzle: Sensor for hsa-mir-208a)
Result :: 683

Query :: What is its apparent KD of MS2 coat protein for MS2 coat protein? Entry: GAAGGAUGAGCGUAGGAUAUAGGAGGAGUGACAUGAGGAUCACCCAUGUAGUAGGAGGGAGGGUACUAGAAGGACGAGGAAGAGG [JR_SS2_Sub068] (puzzle: Same State 2)
Result :: 57.4

Query :: What is its apparent KD of MS2 coat protein for MS2 coat protein? Entry: GGUCCAGCCUGAGCUGGACAAAAGCAUGUACAUGAGGAUCACCCAUGUCAUGUACAAGCUUUUUGCUCGUCAUAAAG [Mat - hsa-mir-208a - 97] (puzzle: Sensor for hsa-mir-208a)
Result :: 334

Query :: What is its apparent KD of MS2 coat protein for MS2 coat protein? Entry: GGUGCACGGUGACGUGCACGGUAGUGCGUACAUGAGGAUCACCCAUGUCAUGUAGGAGUUACUUGUUCGUCUUGAAC [SENSOR #2] (puzzle: Sensor for hsa-mir-208a)
Result :: 25.4

Query :: What is its apparent KD of MS2 coat protein for MS2 coat protein? Entry: GGAGCCGGCACUGAGGAUAUUCAUAUUAAAACAUGAGGAUCACCCAUGUAGGCCAGAAGGCCAUGGGAGAAGGCAGGUCGGCCCG [Bibimoar - 7] (puzzle: Same State 2)
Result :: 416

Query :: What is its apparent KD of MS2 coat protein for MS2 coat protein? Entry: GUGGCCCAGGCACAGGAUAUGUUUCUCGUAACAUGAGGAUCACCCAUGUGCCUAUGAGAUUUUAUGCAGAAGGGUGCACGCCACG [JL Atiinbe mod 01] (puzzle: Same State 2)
Result :: 123

Query :: What is its apparent KD of MS2 coat protein for MS2 coat protein? Entry: GGAGCCGGCACUGAGGAUAUUCAUAUUAAAACAUGAGGAUCACCCAUGUAGGCCAGAAGGCCUUGGGAGAAGGCAGGUCGGCUCA [Mat - Same State 2 - Mod of UCT - D59] (puzzle: Same State 2)
Result :: 338
